Reference source for all entries: paper PMC11513920

# protocol: Human liver microsome stability
# runParameters: human, microsomes, HLM t1/2, HLM 1 mg/mL, 3 μM compound, NADPH, 37 °C, 120 min course
Would you mind telling me the reported half-life at 3 μM of each entry?

Recall and state the measured half-life at 3 μM for C[C@H](Cn1cnc2c(N)ncnc21)OCP(=O)(O)OCCCSCCCCCCCCCCCOc1ccccc1.N [23a] .
0.133 h

Annotate the molecule C[C@H](Cn1cnc2c(N)ncnc21)OCP(=O)(O)OCCCSCCCCCCCCCCC#Cc1ccc(F)cc1.N [15g] with its measured half-life at 3 μM.
> 2 h

Dear colleague, please send me the reported half-life at 3 μM for C[C@H](Cn1cnc2c(N)ncnc21)OCP(=O)(O)OCCCSCCCCCCCCCCCCC1CCCCC1.N [16h] when you can.
> 2 h

Return value of half-life at 3 μM for input C[C@H](Cn1cnc2c(N)ncnc21)OCP(=O)(O)OCCCSCCCCCCCCCCCOC1CCCCC1.N [23d] , no commentary.
0.8 to 0.833 h

# return recorded half-life at 3 μM for input C[C@H](Cn1cnc2c(N)ncnc21)OCP(=O)(O)OCCCSCCCCCCCCCCCOc1ccc(F)cc1.N [23c]
0.8 to 0.833 h

Give reported half-life at 3 μM value for C[C@H](Cn1cnc2c(N)ncnc21)OCP(=O)(O)OCCCSCCCCCCCCCCCCCCC(C)(C)C.N [16e]
> 2 h

Please indicate half-life at 3 μM recorded for C[C@H](Cn1cnc2c(N)ncnc21)OCP(=O)(O)OCCCSCCCCCCCCCCC#CC1CCCCC1.N [15h]
> 2 h

Give reported half-life at 3 μM value for C[C@H](Cn1cnc2c(N)ncnc21)OCP(=O)(O)OCCCSCCCCCCCCCCCCC#C[Si](C)(C)C.N [15c]
> 1.58 h

Entry CCCCCCCCCCCCCCCCCCSCCCOP(=O)(O)CO[C@H](C)Cn1cnc2c(N)ncnc21.N needs its half-life at 3 μM filled in; supply it.
> 2 h

====

# protocol: Mouse plasma pharmacokinetics after oral dose
# Format: in vivo, male C57BL/6 mice
# runParameters: male, C57BL/6, mouse, plasma, po; p.o. 10 mg/kg, 24 h; BLQ = below LLOQ (0.58 ng/mL 2a, 0.62 ng/mL 16g); read-out: mean prodrug concentration in plasma
quantityName: concentration at 24 h (ng/mL)
Report only the number, with the unit ng/mL understood.

Query concentration at 24 h for C[C@H](Cn1cnc2c(N)ncnc21)OCP(=O)(O)OCCCSCCCCCCCCCCCCC1CCCCC1.N [16h]
0.87

====

# Test system: HepaRG cells
# protocol: HepaRG cellular uptake
# runParameters: 20 µM, 3 h
Would you mind telling me the reported mean prodrug concentration in HepaRG cells of each entry?
Field format: number, assumed ng/mL, no unit text.

Query mean prodrug concentration in HepaRG cells for CCCCCCCCCCCCCCCCOCCCOP(=O)(O)CO[C@H](C)Cn1cnc2c(N)ncnc21
397.09

Give a short answer stating reported mean prodrug concentration in HepaRG cells for C[C@H](Cn1cnc2c(N)ncnc21)OCP(=O)(O)OCCCSCCCCCCCCCCCCC1CCCCC1.N [16h] .
1412.37

Please look at this molecule and report its mean prodrug concentration in HepaRG cells: CCCCCCCCCCCCCCCCSCCCOP(=O)(O)CO[C@H](C)Cn1cnc2c(N)ncnc21.N
827.97

Give the measured mean prodrug concentration in HepaRG cells for C[C@H](Cn1cnc2c(N)ncnc21)OCP(=O)(O)OCCCSCCCCCCCCCCCCCCC(C)(C)C.N [16e]
1100.03

Specify measured mean prodrug concentration in HepaRG cells for C[C@H](Cn1cnc2c(N)ncnc21)OCP(=O)(O)OCCCSCCCCCCCCCCCCC#CC(C)(C)C.N [15e] .
241.98

Give mean prodrug concentration in HepaRG cells for the following molecule: C[C@H](Cn1cnc2c(N)ncnc21)OCP(=O)(O)OCCCOCCCCCCCCCCCCCCCC(F)(F)F.N
337.43

Please list mean prodrug concentration in HepaRG cells recorded for the molecule C[C@H](Cn1cnc2c(N)ncnc21)OCP(=O)(O)OCCCSCCCCCCCCCCCCc1ccc(F)cc1.N [16g]
209.81

====

# protocol: Mouse plasma pharmacokinetics after intravenous dose
# Format: in vivo, male C57BL/6 mice
# runParameters: male, C57BL/6, mouse, iv, i.v. 3 mg/kg, 4 h, read-out: mean prodrug concentration in plasma
# Procedure: To compare the in vivo PK profiles to TXL and our previously reported drug lead 1 (Tables S19 and S26),[39] one group of male C57BL/6 mice were administered a single oral dose (p.o., 10 mg/kg) of 2a, 16g, or 16h (refer to Experimental Methods). […] The concentrations of prodrug and TFV metabolite in each of these samples was then quantified using LC–MS/MS methodology. […]
Assignment: determine reported concentration at 4 h for the given compounds.
Numbers only here, please. The scale is ng/mL.

Given CCCCCCCCCCCCCCCCSCCCOP(=O)(O)CO[C@H](C)Cn1cnc2c(N)ncnc21.N , respond with its concentration at 4 h.
3.75

Quick one: give measured concentration at 4 h for C[C@H](Cn1cnc2c(N)ncnc21)OCP(=O)(O)OCCCSCCCCCCCCCCCCC1CCCCC1.N [16h]
8.98

State, in one line, measured concentration at 4 h of C[C@H](Cn1cnc2c(N)ncnc21)OCP(=O)(O)OCCCSCCCCCCCCCCCCc1ccc(F)cc1.N [16g]
12.1

====

# protocol: Mouse plasma pharmacokinetics after oral dose
# Type: in vivo, male C57BL/6 mice
# runParameters: male, C57BL/6, mouse, plasma, po; p.o. 10 mg/kg, 0.25 h; read-out: mean prodrug concentration in plasma
# Procedure: To compare the in vivo PK profiles to TXL and our previously reported drug lead 1 (Tables S19 and S26),[39] one group of male C57BL/6 mice were administered a single oral dose (p.o., 10 mg/kg) of 2a, 16g, or 16h (refer to Experimental Methods). […] The concentrations of prodrug and TFV metabolite in each of these samples was then quantified using LC–MS/MS methodology. […]
quantityName: concentration at 0.25 h (ng/mL)
Dear colleague, please return just the value in ng/mL, with no unit written.

Provide one value: measured concentration at 0.25 h of C[C@H](Cn1cnc2c(N)ncnc21)OCP(=O)(O)OCCCSCCCCCCCCCCCCC1CCCCC1.N [16h]
48.9

Give recorded concentration at 0.25 h. C[C@H](Cn1cnc2c(N)ncnc21)OCP(=O)(O)OCCCSCCCCCCCCCCCCc1ccc(F)cc1.N [16g]
17

Consider the molecule CCCCCCCCCCCCCCCCSCCCOP(=O)(O)CO[C@H](C)Cn1cnc2c(N)ncnc21.N [2a] and give its recorded concentration at 0.25 h.
29.6

====

# protocol: Mouse plasma pharmacokinetics after oral dose
# Type: in vivo, male C57BL/6 mice
# runParameters: male, C57BL/6, mouse, plasma, po; p.o. 10 mg/kg, 8 h; read-out: mean prodrug concentration in plasma
quantityName: concentration at 8 h (ng/mL)
State just the number; it will be interpreted in ng/mL.

Give the measured concentration at 8 h for C[C@H](Cn1cnc2c(N)ncnc21)OCP(=O)(O)OCCCSCCCCCCCCCCCCc1ccc(F)cc1.N [16g]
11.2

Look up concentration at 8 h of C[C@H](Cn1cnc2c(N)ncnc21)OCP(=O)(O)OCCCSCCCCCCCCCCCCC1CCCCC1.N [16h] and report it.
36.1

Kindly indicate its recorded concentration at 8 h. Item: CCCCCCCCCCCCCCCCSCCCOP(=O)(O)CO[C@H](C)Cn1cnc2c(N)ncnc21.N
7.1

====

# protocol: Mouse tissue (liver, kidney, brain) pharmacokinetics after oral dose
# Format: in vivo, male C57BL/6 mice
# runParameters: male, C57BL/6, mouse, liver, po; p.o. 10 mg/kg, 4 h; read-out: mean prodrug concentration in liver
quantityName: concentration at 4 h

Write down concentration at 4 h measured for item C[C@H](Cn1cnc2c(N)ncnc21)OCP(=O)(O)OCCCSCCCCCCCCCCCCc1ccc(F)cc1.N [16g]
4810 ng/mL

Supply measured concentration at 4 h of C[C@H](Cn1cnc2c(N)ncnc21)OCP(=O)(O)OCCCSCCCCCCCCCCCCC1CCCCC1.N [16h] in your reply.
2150 ng/mL

Provide concentration at 4 h value for the following molecule: CCCCCCCCCCCCCCCCSCCCOP(=O)(O)CO[C@H](C)Cn1cnc2c(N)ncnc21.N
395 ng/mL

====

Provide the recorded half-life at 20 μM for the entries that follow.
# protocol: HepaRG cellular metabolic stability
# runParameters: human, other cell line, HepaRG t1/2, after 3 h loading at 20 μM, 37 °C
The figure you give is taken to be in h; do not add the unit.

Recall and state the measured half-life at 20 μM for CCCCCCCCCCCCCCCCSCCCOP(=O)(O)CO[C@H](C)Cn1cnc2c(N)ncnc21.N [2a] .
1.49

Output measured half-life at 20 μM for this item: C[C@H](Cn1cnc2c(N)ncnc21)OCP(=O)(O)OCCCSCCCCCCCCCCCCCCC(C)(C)C.N [16e]
2.05

Find the measured half-life at 20 μM of C[C@H](Cn1cnc2c(N)ncnc21)OCP(=O)(O)OCCCSCCCCCCCCCCCCc1ccc(F)cc1.N [16g] and report it.
0.783
